B1: SOAT1 (parent)
chain: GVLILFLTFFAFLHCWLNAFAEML

Variants of: B1
run-description: protein stability index of a GFP-peptide fusion (GPS, HEK-293T) (PSI 1-6); higher = more stable;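 further: lentivirally expressed fusions sorted by FACS into six bins by GFP to DsRed ratio, PSI derived from sequencing read proportions per bin multiplied by bin number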
measurement-conditions: c terminus: a fixed tail appended

[
  {
    "variant-id": "L17V",
    "protein stability index": 3.02
  },
  {
    "variant-id": "I4N",
    "protein stability index": 3.78
  },
  {
    "variant-id": "F10Y",
    "protein stability index": 3.58
  },
  {
    "variant-id": "F9P",
    "protein stability index": 3.94
  },
  {
    "variant-id": "L5I",
    "protein stability index": 2.23
  },
  {
    "variant-id": "C15P",
    "protein stability index": 2.81
  },
  {
    "variant-id": "L3V",
    "protein stability index": 3.82
  },
  {
    "variant-id": "A11Q",
    "protein stability index": 2.55
  },
  {
    "variant-id": "L24R",
    "protein stability index": 2.33
  },
  {
    "variant-id": "L3M",
    "protein stability index": 3.1
  },
  {
    "variant-id": "L7W",
    "protein stability index": 4.58
  },
  {
    "variant-id": "A19I",
    "protein stability index": 2.76
  },
  {
    "variant-id": "A11Y",
    "protein stability index": 2.09
  },
  {
    "variant-id": "M23V",
    "protein stability index": 2.08
  },
  {
    "variant-id": "L7I",
    "protein stability index": 2.4
  },
  {
    "variant-id": "F10H",
    "protein stability index": 2.17
  },
  {
    "variant-id": "A11K",
    "protein stability index": 2.37
  },
  {
    "variant-id": "L13T",
    "protein stability index": 3.62
  },
  {
    "variant-id": "E22T",
    "protein stability index": 2.47
  },
  {
    "variant-id": "V2W",
    "protein stability index": 2.95
  },
  {
    "variant-id": "V2S",
    "protein stability index": 1.98
  },
  {
    "variant-id": "A19S",
    "protein stability index": 2.83
  },
  {
    "variant-id": "F9Y",
    "protein stability index": 2.83
  },
  {
    "variant-id": "L13F",
    "protein stability index": 2.74
  },
  {
    "variant-id": "F12C",
    "protein stability index": 3.26
  },
  {
    "variant-id": "L5D",
    "protein stability index": 4.32
  },
  {
    "variant-id": "M23K",
    "protein stability index": 2.91
  },
  {
    "variant-id": "A19F",
    "protein stability index": 1.68
  },
  {
    "variant-id": "N18F",
    "protein stability index": 3.51
  },
  {
    "variant-id": "F6T",
    "protein stability index": 2.02
  },
  {
    "variant-id": "F9N",
    "protein stability index": 2.46
  },
  {
    "variant-id": "H14P",
    "protein stability index": 2.06
  },
  {
    "variant-id": "C15A",
    "protein stability index": 2.75
  },
  {
    "variant-id": "V2R",
    "protein stability index": 3.5
  },
  {
    "variant-id": "A11L",
    "protein stability index": 1.75
  },
  {
    "variant-id": "L17F",
    "protein stability index": 2.8
  },
  {
    "variant-id": "W16S",
    "protein stability index": 3.04
  },
  {
    "variant-id": "L5K",
    "protein stability index": 2.87
  },
  {
    "variant-id": "T8P",
    "protein stability index": 3.34
  },
  {
    "variant-id": "L24D",
    "protein stability index": 1.75
  },
  {
    "variant-id": "L17C",
    "protein stability index": 2.63
  },
  {
    "variant-id": "N18Q",
    "protein stability index": 2.81
  },
  {
    "variant-id": "L17T",
    "protein stability index": 2.88
  },
  {
    "variant-id": "F6R",
    "protein stability index": 3.83
  },
  {
    "variant-id": "L7F",
    "protein stability index": 1.85
  },
  {
    "variant-id": "E22D",
    "protein stability index": 2.19
  },
  {
    "variant-id": "L17E",
    "protein stability index": 3.02
  },
  {
    "variant-id": "V2P",
    "protein stability index": 1.74
  },
  {
    "variant-id": "F12T",
    "protein stability index": 2.42
  },
  {
    "variant-id": "L13H",
    "protein stability index": 2.45
  },
  {
    "variant-id": "F9Q",
    "protein stability index": 2.33
  },
  {
    "variant-id": "M23W",
    "protein stability index": 2.61
  },
  {
    "variant-id": "L24T",
    "protein stability index": 3.04
  },
  {
    "variant-id": "I4E",
    "protein stability index": 2.23
  },
  {
    "variant-id": "N18D",
    "protein stability index": 1.71
  },
  {
    "variant-id": "F6M",
    "protein stability index": 1.35
  },
  {
    "variant-id": "L7K",
    "protein stability index": 3.37
  },
  {
    "variant-id": "F10E",
    "protein stability index": 2.27
  },
  {
    "variant-id": "F9K",
    "protein stability index": 3.13
  },
  {
    "variant-id": "L17K",
    "protein stability index": 3.15
  },
  {
    "variant-id": "H14A",
    "protein stability index": 2.22
  },
  {
    "variant-id": "W16L",
    "protein stability index": 3.2
  },
  {
    "variant-id": "W16A",
    "protein stability index": 2
  },
  {
    "variant-id": "F20R",
    "protein stability index": 2.89
  },
  {
    "variant-id": "H14R",
    "protein stability index": 2.68
  },
  {
    "variant-id": "H14V",
    "protein stability index": 1.48
  },
  {
    "variant-id": "T8M",
    "protein stability index": 2.6
  },
  {
    "variant-id": "I4T",
    "protein stability index": 3.27
  },
  {
    "variant-id": "F9E",
    "protein stability index": 3.8
  },
  {
    "variant-id": "L5M",
    "protein stability index": 1.72
  },
  {
    "variant-id": "C15M",
    "protein stability index": 3.37
  },
  {
    "variant-id": "G1M",
    "protein stability index": 2.94
  },
  {
    "variant-id": "A11P",
    "protein stability index": 3.29
  },
  {
    "variant-id": "W16C",
    "protein stability index": 2.68
  },
  {
    "variant-id": "L24G",
    "protein stability index": 3.4
  },
  {
    "variant-id": "C15R",
    "protein stability index": 1.95
  },
  {
    "variant-id": "F10N",
    "protein stability index": 3.82
  },
  {
    "variant-id": "G1P",
    "protein stability index": 3.53
  },
  {
    "variant-id": "A21S",
    "protein stability index": 1.84
  },
  {
    "variant-id": "F10C",
    "protein stability index": 2.63
  },
  {
    "variant-id": "G1W",
    "protein stability index": 1.61
  },
  {
    "variant-id": "L24A",
    "protein stability index": 2.69
  },
  {
    "variant-id": "M23D",
    "protein stability index": 2.29
  },
  {
    "variant-id": "F6Q",
    "protein stability index": 3.85
  },
  {
    "variant-id": "L17D",
    "protein stability index": 2.9
  },
  {
    "variant-id": "C15N",
    "protein stability index": 3.02
  },
  {
    "variant-id": "W16M",
    "protein stability index": 3.65
  },
  {
    "variant-id": "I4R",
    "protein stability index": 3.74
  },
  {
    "variant-id": "C15V",
    "protein stability index": 2
  },
  {
    "variant-id": "L17I",
    "protein stability index": 2.26
  },
  {
    "variant-id": "T8Y",
    "protein stability index": 3.57
  }
]
